Target: HIF1A
Test: HeLa, 100 nM transfected, 24 h, mean of 3
Conditions: ASO
Bases are written 5' to 3'; sugars and linkages follow in the same order, as letters with counts (s phosphorothioate, o phosphodiester; PS: all linkages phosphorothioate). C may stand for cytosine or 5-methylcytosine; the collection does not tell. l = locked nucleic acid (LNA); d = 2'-deoxy (DNA)
Recorded caspase activation (% of PBS control) by entry

{"columns": ["sequenceData", "caspase activation (% of PBS control)"],
 "data": [
  ["GTTACTGCCTTCTTAC (sugars l2 d10 l4, PS)", 151],
  ["GTTACTGCCTTCT (sugars l1 d2 l1 d7 l2, PS)", 136],
  ["GTTACTGCCTTCTTAC (sugars lldlldddddddldll, PS)", 293],
  ["TGGCAAGCATCCT (sugars l3 d9 l1, PS)", 287],
  ["TGGCAAGCATCCT (sugars l4 d8 l1, PS)", 471],
  ["CAAGCATCCTGTA (sugars l3 d8 l2, PS)", 302],
  ["GTTACTGCCTTCTTAC (sugars ldddlddddddlldll, PS)", 165],
  ["TGGCAAGCATCCTGTA (sugars l1 d10 l1 d3 l1, PS)", 199],
  ["TGGCAAGCATCCTGTA (sugars lldldddddddldldl, PS)", 429],
  ["TGGCAAGCATCCTGTA (sugars l5 d10 l1, PS)", 403],
  ["GTTACTGCCTTCTTAC (sugars l1 d12 l3, PS)", 100],
  ["GTTACTGCCTTCTTAC (sugars lldllddddddldddl, PS)", 260],
  ["CAAGCATCCTGTA (sugars l2 d10 l1, PS)", 142],
  ["GTTACTGCCTTCTTAC (sugars l1 d1 l2 d8 l4, PS)", 200],
  ["TACTGCCTTCTTA (sugars l1 d1 l1 d7 l3, PS)", 494]
]}

* * *

Target: HIF1A
Test: HeLa, 100 nM transfected, 24 h, mean of 3
Details: ASO
Bases are written 5' to 3'; sugars and linkages follow in the same order, as letters with counts (s phosphorothioate, o phosphodiester; PS: all linkages phosphorothioate). C may stand for cytosine or 5-methylcytosine; the collection does not tell. l = locked nucleic acid (LNA); d = 2'-deoxy (DNA)
If the reported caspase activation (% of PBS control) equals or exceeds 300, assign Yes. If not, assign No.

{"columns": ["sequenceData", "qualitativeLabel"],
 "data": [
  ["TGGCAAGCATCCT (sugars l1 d9 l1 d1 l1, PS)", "No"],
  ["TGGCAAGCATCCTGTA (sugars llddldddddddlddl, PS)", "Yes"],
  ["TGGCAAGCATCCTGTA (sugars l3 d11 l2, PS)", "Yes"],
  ["TGGCAAGCATCCTGTA (sugars l2 d11 l1 d1 l1, PS)", "Yes"],
  ["TGGCAAGCATCCTGTA (sugars l5 d7 l2 d1 l1, PS)", "Yes"],
  ["TGGCAAGCATCCTGTA (sugars l2 d9 l1 d3 l1, PS)", "Yes"],
  ["ACTGCCTTCTTAC (sugars l1 d1 l2 d6 l3, PS)", "No"],
  ["GTTACTGCCTTCTTAC (sugars lldlddddddddlldl, PS)", "No"],
  ["TGGCAAGCATCCTGTA (sugars ldlldddddddllddl, PS)", "Yes"],
  ["TGGCAAGCATCCTGTA (sugars l2 d2 l1 d10 l1, PS)", "Yes"]
]}
